# System: SW 982 tumor spheroid viability
# Assay Explanation: Anticancer human tumor SW 982 cell line growth inhibition;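 also: spheroids exposed to compound for 7 days before readout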
# Particulars: second compound 0.0949 µM; first compound 1 µM; active compounds read low; spheroids with HUVEC and MSC
Result Type: viability, T/C

INSERT INTO measurements (molecule, result_type, result) VALUES
  ('COc1ccc([C@@H](O)c2cc(-c3ncnc4cc(N5CCOCC5)ccc34)c(F)cc2Cl)nn1 + CC[C@@]1(O)C(=O)OCc2c1cc1n(c2=O)Cc2cc3c(CN(C)C)c(O)ccc3nc2-1', 'viability, T/C', '36.6%'),
  ('CC1COCCN1c1cc(-c2ccnn2C)c2ccnc(-c3ccn[nH]3)c2n1 (stereo not drawn) + CC[C@@]1(O)C(=O)OCc2c1cc1n(c2=O)Cc2cc3c(CN(C)C)c(O)ccc3nc2-1', 'viability, T/C', '8.79%');

With those in mind, consider the next molecule.
[in] Give viability, T/C for [2H]c1nc(C)nc([2H])c1-c1cc(NC[C@@H](C)c2cccc3c(C(=O)NC)ccnc23)ncn1 + CC[C@@]1(O)C(=O)OCc2c1cc1n(c2=O)Cc2cc3c(CN(C)C)c(O)ccc3nc2-1
[out] 70.9%

====

Readings of viability, T/C for the listed compounds
# Tested on: SW 982 tumor spheroid viability
# Assay Explanation: Anticancer human tumor SW 982 cell line growth inhibition;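 also: spheroids exposed to compound for 7 days before readout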
# Particulars: second compound 0.0003 µM; first compound 0.0949 µM; active compounds read low; spheroids with HUVEC and MSC
# number only, unit % dropped from output

Examples with their reported viability, T/C follow.
INSERT INTO results (compound, result_type, number) VALUES
  ('O=C(c1cc(Cc2n[nH]c(=O)c3ccccc23)ccc1F)N1CCN(C(=O)C2CC2)CC1 + COc1cc2c(cc1O)CCNC21CSC2c3c(OC(C)=O)c(C)c4c(c3C(COC1=O)N1C(O)C3Cc5cc(C)c(OC)c(O)c5C(C21)N3C)OCO4', 'viability, T/C', 74.4),
  ('Cc1sc2c(c1C)C(c1ccc(Cl)cc1)=NC(CC(=O)Nc1ccc(O)cc1)c1nnc(C)n1-2 (centres undefined) + COc1cc2c(cc1O)CCNC21CSC2c3c(OC(C)=O)c(C)c4c(c3C(COC1=O)N1C(O)C3Cc5cc(C)c(OC)c(O)c5C(C21)N3C)OCO4', 'viability, T/C', 70.4),
  ('CNCc1ccc(-c2cc(-c3nc(-c4ccc(S(=O)(=O)C(C)C)cc4)cnc3N)on2)cc1 + COc1cc2c(cc1O)CCNC21CSC2c3c(OC(C)=O)c(C)c4c(c3C(COC1=O)N1C(O)C3Cc5cc(C)c(OC)c(O)c5C(C21)N3C)OCO4', 'viability, T/C', 47.9);

[in] Give viability, T/C for Cn1ncnc1[C@H]1c2n[nH]c(=O)c3cc(F)cc(c23)N[C@@H]1c1ccc(F)cc1 + COc1cc2c(cc1O)CCNC21CSC2c3c(OC(C)=O)c(C)c4c(c3C(COC1=O)N1C(O)C3Cc5cc(C)c(OC)c(O)c5C(C21)N3C)OCO4
[out] 70

====

# Tested on: SW 982 tumor spheroid viability
# Assay Explanation: Anticancer human tumor SW 982 cell line growth inhibition;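 also: spheroids exposed to compound for 7 days before readout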
# Particulars: second compound 0.03 µM; first compound 3 µM; active compounds read low; spheroids with HUVEC and MSC
Result Type: viability, T/C (%)
# number only, unit % dropped from output

INSERT INTO results (molecule, result_type, number) VALUES
  ('Cn1ncnc1[C@H]1c2n[nH]c(=O)c3cc(F)cc(c23)N[C@@H]1c1ccc(F)cc1 + CC[C@@]1(O)C(=O)OCc2c1cc1n(c2=O)Cc2cc3c(CN(C)C)c(O)ccc3nc2-1', 'viability, T/C', 57.7);

[in] Give viability, T/C for CNCc1ccc(-c2cc(-c3nc(-c4ccc(S(=O)(=O)C(C)C)cc4)cnc3N)on2)cc1 + CC[C@@]1(O)C(=O)OCc2c1cc1n(c2=O)Cc2cc3c(CN(C)C)c(O)ccc3nc2-1
[out] 17.5

[in] Give viability, T/C for Cc1sc2c(c1C)C(c1ccc(Cl)cc1)=NC(CC(=O)Nc1ccc(O)cc1)c1nnc(C)n1-2 (centres undefined) + CC[C@@]1(O)C(=O)OCc2c1cc1n(c2=O)Cc2cc3c(CN(C)C)c(O)ccc3nc2-1
[out] 29.8

[in] Give viability, T/C for O=C(c1cc(Cc2n[nH]c(=O)c3ccccc23)ccc1F)N1CCN(C(=O)C2CC2)CC1 + CC[C@@]1(O)C(=O)OCc2c1cc1n(c2=O)Cc2cc3c(CN(C)C)c(O)ccc3nc2-1
[out] 75.8
